Consider the following compounds and their measured IC50 readings.
- assayedTarget: Polyunsaturated fatty acid 5-lipoxygenase (Rattus norvegicus)
- Sequence (P12527 whole entry): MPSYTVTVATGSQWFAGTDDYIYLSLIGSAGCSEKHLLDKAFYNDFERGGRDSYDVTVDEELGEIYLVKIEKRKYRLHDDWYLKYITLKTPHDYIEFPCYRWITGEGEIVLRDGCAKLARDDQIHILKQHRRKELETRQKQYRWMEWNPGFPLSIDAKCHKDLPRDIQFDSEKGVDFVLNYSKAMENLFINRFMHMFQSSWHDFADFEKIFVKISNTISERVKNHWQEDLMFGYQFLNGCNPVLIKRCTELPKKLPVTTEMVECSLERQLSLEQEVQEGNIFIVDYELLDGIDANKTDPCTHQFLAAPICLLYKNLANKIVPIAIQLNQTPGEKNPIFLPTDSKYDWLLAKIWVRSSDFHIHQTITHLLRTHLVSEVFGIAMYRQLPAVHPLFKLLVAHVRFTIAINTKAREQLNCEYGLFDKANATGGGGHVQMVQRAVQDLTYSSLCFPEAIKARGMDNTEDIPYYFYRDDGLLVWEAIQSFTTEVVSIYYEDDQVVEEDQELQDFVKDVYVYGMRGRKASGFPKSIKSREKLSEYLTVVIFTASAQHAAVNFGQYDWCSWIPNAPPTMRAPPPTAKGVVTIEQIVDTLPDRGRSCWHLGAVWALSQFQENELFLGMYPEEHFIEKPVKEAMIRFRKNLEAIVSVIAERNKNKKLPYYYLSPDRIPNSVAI
- testDescription: In vitro inhibitory activity against 5-lipoxygenase in rat RBL-1 cells

# compound, assayedTarget, IC50 / nM
data = [
    ("CC(C)Cc1ccc(C(C)C(=O)NO)cc1 (stereo not drawn)", "Polyunsaturated fatty acid 5-lipoxygenase (Rattus norvegicus)", 4840),
    ("CC(C(=O)N(C)O)c1ccc(OCc2ccccc2)cc1 (stereo not drawn)", "Polyunsaturated fatty acid 5-lipoxygenase (Rattus norvegicus)", 280),
    ("CCCCOc1ccc(C(C)C(=O)N(C)O)cc1 (stereo not drawn)", "Polyunsaturated fatty acid 5-lipoxygenase (Rattus norvegicus)", 730),
    ("Cc1cc(C)c(-c2ccc(C(=O)N(C)O)cc2)c(C)c1", "Polyunsaturated fatty acid 5-lipoxygenase (Rattus norvegicus)", 60),
    ("CC(C)Cc1ccc(C(C)C(=O)N(C)O)cc1 (stereo not drawn)", "Polyunsaturated fatty acid 5-lipoxygenase (Rattus norvegicus)", 980),
    ("Cc1cc(C)c(-c2ccc(/C=C/C(=O)N(C)O)cc2)c(C)c1", "Polyunsaturated fatty acid 5-lipoxygenase (Rattus norvegicus)", 22),
    ("CC(C)Oc1ccc(C(C)C(=O)N(C)O)cc1 (stereo not drawn)", "Polyunsaturated fatty acid 5-lipoxygenase (Rattus norvegicus)", 3700),
    ("COc1ccc2cc(C(C)C(=O)N(C)O)ccc2c1 (stereo not drawn)", "Polyunsaturated fatty acid 5-lipoxygenase (Rattus norvegicus)", 410),
]

* * *

- Tested on: Rattus norvegicus
- testDescription: Plasma concentration was evaluated for corresponding carboxylic acid metabolite at 100 mg/kg dose peroral administration in rats after 20 min
- Assay type: functional, organism-based
- Design: dose 100 mg/kg
measure: log10(Concentration) (log10 of the value in µM)

# compound, measure, reportedMeasurement
records = [
    ("CC(C)Cc1ccc(C(C(=O)N(C)O)C(C)C)cc1 (configuration not stated)", "log10(Concentration)", 0.57),
    ("CC(C)Cc1ccc(C(C)C(=O)NO)cc1 (configuration not stated)", "log10(Concentration)", 2.06),
    ("CC(C)Cc1ccc(C(C)C(=O)N(C)O)cc1 (configuration not stated)", "log10(Concentration)", 1.61),
    ("CC(C)Cc1ccc(CC(=O)N(C)O)cc1", "log10(Concentration)", 2.21),
    ("COc1ccc2cc(C(C)C(=O)N(C)O)ccc2c1 (configuration not stated)", "log10(Concentration)", 0.48),
    ("CC(C)Cc1ccc(CCC(=O)N(C)O)cc1", "log10(Concentration)", 2.54),
    ("CC(C)Cc1ccc(C(=O)N(C)O)cc1", "log10(Concentration)", 2.64),
    ("CCCCOc1ccc(C(C)C(=O)N(C)O)cc1 (configuration not stated)", "log10(Concentration)", 1.60),
    ("CC(C)Cc1ccc(/C=C/C(=O)N(C)O)cc1", "log10(Concentration)", 0.28),
    ("CC(C(=O)N(C)O)c1ccc(OCc2ccccc2)cc1 (configuration not stated)", "log10(Concentration)", 1.20),
    ("CC(C)Cc1ccc(C(C)(C)C(=O)N(C)O)cc1", "log10(Concentration)", 0.97),
]

* * *

Consider the following compounds and their measured Concentration readings.
- Test system: Rattus norvegicus
- testDescription: Plasma concentration was evaluated for corresponding hydroxamic acid metabolite at 100 mg/kg dose peroral administration in rats after 20 min
- Type: functional, organism-based
- Design: dose 100 mg/kg

# compound, Concentration
records = [
    ("CC(C)Cc1ccc(CC(=O)N(C)O)cc1", "46 µM"),
    ("CC(C)Cc1ccc(C(C(=O)N(C)O)C(C)C)cc1 (configuration not stated)", "5 µM"),
    ("CC(C)Cc1ccc(C(=O)N(C)O)cc1", "< 5 µM"),
    ("COc1ccc2cc(C(C)C(=O)N(C)O)ccc2c1 (configuration not stated)", "1.7 µM"),
    ("CC(C(=O)N(C)O)c1ccc(OCc2ccccc2)cc1 (configuration not stated)", "8.4 µM"),
    ("CC(C)Cc1ccc(/C=C/C(=O)N(C)O)cc1", "< 4 µM"),
    ("CC(C)Cc1ccc(C(C)C(=O)NO)cc1 (configuration not stated) [IBUPROXAM]", "49 µM"),
    ("CC(C)Cc1ccc(C(C)C(=O)N(O)C(C)C)cc1 (configuration not stated)", "< 4 µM"),
    ("CC(C)Cc1ccc(C(C)C(=O)N(C)O)cc1 (configuration not stated)", "32 µM"),
    ("CC(C)Cc1ccc(CCC(=O)N(C)O)cc1", "< 10 µM"),
    ("CC(C)Cc1ccc(C(C)(C)C(=O)N(C)O)cc1", "5.8 µM"),
    ("CCCCOc1ccc(C(C)C(=O)N(C)O)cc1 (configuration not stated)", "38 µM"),
]

* * *

- System: Rattus norvegicus
- testDescription: Inhibition of leukotriene biosynthesis was determined in vivo with the rat peritoneal anaphylaxis model administered perorally at 100 mg/kg
- Type: functional
- runParameters: route oral
Consider the following compounds and their measured inhibition in vivo at 100 mg/kg readings.

# compound, inhibition in vivo at 100 mg/kg / %
records = [
    ("CCCCOc1ccc(C(C)C(=O)N(C)O)cc1 (stereo unspecified)", 62),
    ("CC(C)Cc1ccc(C(C)C(=O)N(C)O)cc1 (stereo unspecified)", 65),
    ("COc1ccc2cc(C(C)C(=O)N(C)O)ccc2c1 (stereo unspecified)", 52),
    ("CC(C(=O)N(C)O)c1ccc(OCc2ccccc2)cc1 (stereo unspecified)", 62),
    ("CC(C)Oc1ccc(C(C)C(=O)N(C)O)cc1 (stereo unspecified)", 67),
    ("Cc1cc(C)c(-c2ccc(C(=O)N(C)O)cc2)c(C)c1", 41),
]

Origin of the recorded values: ChEMBL document CHEMBL1123650
